Target: Bcl-2-related protein A1 (Homo sapiens)
Assay: Covalent binding affinity to N-terminal His6-tagged human Bfl-1 (1 to 149 residues) assessed as band shift at 100 uM incubated for 16 hrs by SDS PAGE analysis
The source made the active and inactive calls. The rule behind the calls is not given here. Positions of bridges follow the written chain, without caps; N, C: chain ends. Non-standard residues stand in square brackets, D forms with d. Residues, ends and D or L forms follow the SMILES beside them. *: point of attachment. Benzoyl(2-OMe,5-SO2F) = COc1ccc(S(=O)(=O)F)cc1C(=O)*; S5 = C=CCCC[C@](C)(N)C(=O)O; Dap = NC[C@H](N)C(=O)O
MEASUREMENT TYPE: Activity

Worked examples follow.
COMPOUND | Activity
CC[C@H](C)[C@H](NC(=O)[C@H](CCCNC(=N)N)NC(=O)[C@]1(C)CCC/C=C\CCC[C@](C)(NC(=O)[C@@H](NC(=O)[C@@H](CNC(=O)c2cc(S(=O)(=O)F)ccc2OC)NC(C)=O)[C@@H](C)CC)C(=O)N[C@H](CCC(=O)O)C(=O)N[C@@H](CCC(N)=O)C(=O)N[C@@H](CC(C)C)C(=O)N1)C(=O)NCC(=O)N[C@@H](CC(=O)O)C(=O)N[C@@H](CCCNC(=N)N)C(=O)N[C@@H](Cc1ccccc1)C(N)=O | inactive
CC[C@H](C)[C@H](NC(=O)[C@@H]1CCCCn2cc(nn2)CCC[C@H](NC(=O)[C@H](C)NC(=O)[C@@H](NC(=O)[C@H](CNC(=O)c2cc(S(=O)(=O)F)ccc2OC)NC(C)=O)[C@@H](C)CC)C(=O)N[C@@H](CCC(N)=O)C(=O)N[C@@H](CC(C)C)C(=O)N[C@@H](CCCNC(=N)N)C(=O)N1)C(=O)NCC(=O)N[C@@H](CC(=O)O)C(=O)N[C@@H](CCCNC(=N)N)C(=O)N[C@@H](Cc1ccccc1)C(N)=O | inactive
CC[C@H](C)[C@H](NC(=O)[C@H](CC(=O)O)NC(=O)[C@H](CCCNC(=N)N)NC(=O)[C@H](CC(C)C)NC(=O)[C@H](CCC(N)=O)NC(=O)[C@]1(C)CCC/C=C/CCC[C@](C)(NC(C)=O)C(=O)N[C@@H](CNC(=O)c2cc(S(=O)(=O)F)ccc2OC)C(=O)N[C@@H]([C@@H](C)CC)C(=O)N[C@@H](C)C(=O)N1)C(=O)NCC(=O)N[C@@H](CC(=O)O)C(=O)N[C@@H](CCCNC(=N)N)C(=O)N[C@@H](Cc1ccccc1)C(N)=O (Ac-[S5][Dap](Benzoyl(2-OMe,5-SO2F))IA[S5]QLRDIGDRF-NH2; staple (E) 1-5) | inactive
CC[C@H](C)[C@H](NC(=O)[C@H](CNC(=O)c1cc(S(=O)(=O)F)ccc1OC)NC(C)=O)C(=O)N[C@@H](C)C(=O)N[C@@]1(C)CCC/C=C\CCC[C@@](C)(C(=O)N[C@H](C(=O)NCC(=O)N[C@@H](CC(=O)O)C(=O)N[C@@H](CCCNC(=N)N)C(=O)N[C@@H](Cc2ccccc2)C(N)=O)[C@@H](C)CC)NC(=O)[C@H](CCCNC(=N)N)NC(=O)[C@H](CC(C)C)NC(=O)[C@H](CCC(N)=O)NC1=O (Ac-[Dap](Benzoyl(2-OMe,5-SO2F))IA[S5]QLR[S5]IGDRF-NH2; staple (Z) 4-8) | inactive
CC[C@H](C)[C@H](NC(=O)[C@H](C)NC(=O)[C@H](CCCNC(=N)N)NC(=O)[C@H](CC(C)C)NC(=O)[C@H](CCC(N)=O)NC(=O)[C@]1(C)CCC/C=C/CCC[C@](C)(NC(C)=O)C(=O)N[C@@H](CNC(=O)c2cc(S(=O)(=O)F)ccc2OC)C(=O)N[C@@H]([C@@H](C)CC)C(=O)N[C@@H](C)C(=O)N1)C(=O)NCC(=O)N[C@@H](CC(=O)O)C(=O)N[C@@H](CCCNC(=N)N)C(=O)N[C@@H](Cc1ccccc1)C(N)=O (Ac-[S5][Dap](Benzoyl(2-OMe,5-SO2F))IA[S5]QLRAIGDRF-NH2; staple (E) 1-5) | inactive

Pending compound:
// query Activity value for entry CC[C@H](C)[C@H](NC(=O)[C@H](CNC(=O)c1cc(S(=O)(=O)F)ccc1OC)NC(C)=O)C(=O)N[C@@H](C)C(=O)N[C@@]1(C)CCC/C=C\CCC[C@@](C)(C(=O)N[C@H](C(=O)NCC(=O)N[C@@H](CC(=O)O)C(=O)N[C@@H](C)C(=O)N[C@@H](Cc2ccccc2)C(N)=O)[C@@H](C)CC)NC(=O)[C@H](CCCNC(=N)N)NC(=O)[C@H](CC(C)C)NC(=O)[C@H](CCC(N)=O)NC1=O (Ac-[Dap](Benzoyl(2-OMe,5-SO2F))IA[S5]QLR[S5]IGDAF-NH2; staple (Z) 4-8)
inactive
